Consider the following compounds; for each one, report its MIC.
- System: Salmonella typhimurium
- test-description: In vitro minimum inhibitory concentration for Salmonella Typhimurium (ATCC-14028) by agar dilution method
- Format: functional, Salmonella enterica subsp. enterica serovar Typhimurium
- experimental-context: Salmonella enterica; read-out: MIC
Numbers only, in µg/mL.

Consider the reported MIC for these compounds:
CC(C)(O/N=C(\C(=O)NC1C(=O)N2C(C(=O)O)=C(CSc3nc(N)cc(N)n3)CSC12)c1cnc(N)s1)C(=O)O (centres undefined) = 0.5
Cc1cccc(C)c1-[n+]1c(N)cc(N)nc1SCC1=C(C(=O)[O-])N2C(=O)C(NC(=O)/C(=N\OC(C)(C)C(=O)O)c3cnc(N)s3)C2SC1 (centres undefined) = 2
CCCC[n+]1c(N)cc(N)nc1SCC1=C(C(=O)[O-])N2C(=O)C(NC(=O)/C(=N\OC(C)(C)C(=O)O)c3cnc(N)s3)C2SC1 (centres undefined) = 0.5

Q: Supply reported MIC belonging to this compound: CC[n+]1c(N)cc(N)nc1SCC1=C(C(=O)[O-])N2C(=O)C(NC(=O)/C(=N\OC(C)(C)C(=O)O)c3cnc(N)s3)C2SC1 (centres undefined)
Ans: 0.25
